biological target: UniProtKB P08709
ASSAY_ENDPOINT: IC50 (nM)

Sample answers from the record:
COMPOUND: CCOc1cc(C(Nc2ccc(C(=N)N)cc2)C(=O)NNC(=O)c2cnccc2C)ccc1OC(C)C.O=C(O)C(F)(F)F (stereo not drawn) [Example 27, trifluoroacetate]
EXPERIMENTAL_SYSTEM: UniProtKB P08709
REPORTED_MEASUREMENT: 69
--
COMPOUND: COc1cc(F)c(C(Nc2ccc(C(=N)N)cc2)C(=O)NNC(=O)c2ccccc2Cl)cc1OC.O=C(O)C(F)(F)F (stereo not drawn) [Example 23, trifluoroacetate]
EXPERIMENTAL_SYSTEM: UniProtKB P08709
REPORTED_MEASUREMENT: 255
--
COMPOUND: CCOc1cc(C(Nc2ccc(C(=N)N)cc2)C(=O)NNc2ccccc2C(=O)O)ccc1OC(C)CN(C)C.O=C(O)C(F)(F)F (stereo not drawn) [Example X-251, trifluoroacetate]
EXPERIMENTAL_SYSTEM: UniProtKB P08709
REPORTED_MEASUREMENT: 166

(P) CCCOc1cc(OC)cc(C(Nc2ccc(C(=N)N)cc2)C(=O)NNC(=O)c2ccncc2)c1F.O=C(O)C(F)(F)F (stereo not drawn) [Example 81, trifluoroacetate]
(Q) CCOc1cc(C(Nc2ccc(C(=N)N)cc2)C(=O)NNC(=O)c2ccncc2Cl)ccc1OCC(=O)N(C)C.O=C(O)C(F)(F)F (stereo not drawn) [Example 61, trifluoroacetate]
Request: Choose between P and Q : whose measured IC50 value is numerically larger? Answer = label.
Result: Q
(Q: 184 nM, P: 78 nM)

(A) CCOc1cc(C(Nc2ccc(C(=N)N)cc2)C(=O)NNC(=O)c2ccncc2Cl)ccc1OC(C)C.O=C(O)C(F)(F)F (stereo not drawn) [Example 33, trifluoroacetate]
(B) CCOc1cc(C(Nc2ccc(C(=N)N)cc2)C(=O)NNS(=O)(=O)c2ccc(NC(C)=O)cc2)ccc1OC(C)C.O=C(O)C(F)(F)F (stereo not drawn) [Example 9, trifluoroacetate]
Request: Choose between A and B : whose measured IC50 value is numerically larger? Answer = label.
Result: B
(B: 316 nM, A: 57 nM)

* * *

molecular target: human clotting factor VIIa (Homo sapiens); construct: a human clotting factor VIIa (Factor VIIa) purified sample; purchased Enzyme Research Laboratories (Factor VIIa); Calbiochem (tissue factor) HFVIIa (Factor VIIa); 612151 (tissue factor); test: Inhibitory activity against clotting factor VIIa (chromogenic substrate Spectrozyme FVIIa, with tissue factor); format: biochemical; settings: 10 nmol/L TF, 5 nmol/L Factor VIIa, room temperature 40 minutes, 405 nm
Structures can show the parent of a compound that is named as a salt.
ASSAY_ENDPOINT: IC50 (µM)

Sample answers from the record:
MOLECULE: CCOc1cc(C(Nc2ccc(C(=N)N)cc2)C(=O)NNC(=O)c2cnccc2C)ccc1OCCOC.O=C(O)C(F)(F)F (stereo not drawn) [Example 76, trifluoroacetate]
REPORTED_MEASUREMENT: 0.169
--
MOLECULE: CCOc1cc(C(Nc2ccc(C(=N)N)cc2)C(=O)NNC(=O)c2ccncc2F)ccc1OCC(C)(C)N.O=C(O)C(F)(F)F (stereo not drawn) [Example X-248, trifluoroacetate]
REPORTED_MEASUREMENT: 0.173
--
MOLECULE: CCOc1cc(C(Nc2ccc(C(=N)N)cc2)C(=O)NNC(=O)c2ccncc2Cl)ccc1OCCOC.O=C(O)C(F)(F)F (stereo not drawn) [Example 78, trifluoroacetate]
REPORTED_MEASUREMENT: 0.049
--
MOLECULE: CCOc1cc(C(Nc2ccc(C(=N)N)cc2)C(=O)NNS(=O)(=O)c2ccccc2S(C)(=O)=O)ccc1OC(C)C.O=C(O)C(F)(F)F (stereo not drawn)
REPORTED_MEASUREMENT: 0.233
--
MOLECULE: CCOc1cc(C(Nc2ccc(C(=N)N)cc2)C(=O)NNC(=O)c2ccncc2F)ccc1OC(C)CN(C)C.O=C(O)C(F)(F)F (stereo not drawn) [Example X-254, trifluoroacetate]
REPORTED_MEASUREMENT: 0.05
--
MOLECULE: CCOc1cc(C(Nc2ccc(C(=N)N)cc2)C(=O)NNC(=O)c2cnccc2Cl)ccc1OC(C)C.O=C(O)C(F)(F)F (stereo not drawn) [Example 25, trifluoroacetate]
REPORTED_MEASUREMENT: 0.084
--
MOLECULE: CCOc1cc(C(Nc2ccc(C(=N)N)cc2)C(=O)NNC(=O)c2ccncc2F)ccc1OCC(=O)N(C)C.O=C(O)C(F)(F)F (stereo not drawn) [Example 60, trifluoroacetate]
REPORTED_MEASUREMENT: 0.203
--
MOLECULE: CCOc1cc(C(Nc2ccc(C(=N)N)cc2)C(=O)NNC(=O)c2ccccc2Cl)ccc1OCC(C)(C)N (stereo not drawn) [Example X-247, trifluoroacetate]
REPORTED_MEASUREMENT: 0.336

(a) COc1cc(F)c(C(Nc2ccc(C(=N)N)cc2)C(=O)NNC(=O)c2ccccc2Br)cc1OC.O=C(O)C(F)(F)F (stereo not drawn) [Example 72, trifluoroacetate]
(b) CCOc1cc(C(Nc2ccc(C(=N)N)cc2)C(=O)NNC(=O)c2ccncc2Br)ccc1OC(C)C.O=C(O)C(F)(F)F (stereo not drawn) [Example 34, trifluoroacetate]
(c) CCOc1cc(C(Nc2ccc(C(=N)N)cc2)C(=O)NNC(=O)c2ccccc2[N+](=O)[O-])ccc1OC(C)C.O=C(O)C(F)(F)F (stereo not drawn) [Example 32, trifluoroacetate]
(d) CCOc1cc(C(Nc2ccc(C(=N)N)cc2)C(=O)NNc2ccccc2C(=O)O)ccc1OCC(=O)N(C)C.O=C(O)C(F)(F)F (stereo not drawn) [Example X-246, trifluoroacetate]
Request: Please put the entries in order of rising IC50. Write the labels, ordered according to the request.
Result: b, c, d, a
(b: 0.063 µM, c: 0.11 µM, d: 0.165 µM, a: 0.259 µM)

* * *

target: human clotting factor VIIa (Homo sapiens, UniProt P08709)
Sequence (P08709 213-466 limits assumed): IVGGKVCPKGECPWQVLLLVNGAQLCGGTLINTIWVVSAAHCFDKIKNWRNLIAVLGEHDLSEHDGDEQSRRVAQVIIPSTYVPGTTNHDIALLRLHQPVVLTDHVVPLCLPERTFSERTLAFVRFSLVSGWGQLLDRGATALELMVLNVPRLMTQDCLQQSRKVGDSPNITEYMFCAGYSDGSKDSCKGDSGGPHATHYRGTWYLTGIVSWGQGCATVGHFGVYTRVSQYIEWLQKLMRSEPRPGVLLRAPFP
Sequence (P08709 61-212 limits assumed): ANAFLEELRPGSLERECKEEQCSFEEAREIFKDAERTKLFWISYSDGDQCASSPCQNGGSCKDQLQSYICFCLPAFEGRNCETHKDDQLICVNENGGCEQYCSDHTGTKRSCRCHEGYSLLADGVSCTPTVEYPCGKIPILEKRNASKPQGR
Sequence (P13726 33-295 partner): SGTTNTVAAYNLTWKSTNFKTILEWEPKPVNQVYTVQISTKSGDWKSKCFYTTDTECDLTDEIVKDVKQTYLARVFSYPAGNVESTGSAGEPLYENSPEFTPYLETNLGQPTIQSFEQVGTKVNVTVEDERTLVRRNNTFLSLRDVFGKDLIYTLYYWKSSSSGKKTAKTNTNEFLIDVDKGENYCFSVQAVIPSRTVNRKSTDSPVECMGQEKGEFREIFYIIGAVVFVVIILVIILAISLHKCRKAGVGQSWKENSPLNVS
pIC50: −log10 of the molar value.
ASSAY_ENDPOINT: pIC50

Sample answers from the record:
COMPOUND: CCOc1cc(C(Nc2ccc(C(=N)N)cc2)C(=O)NNc2ccccn2)ccc1OC(C)C.O=C(O)C(F)(F)F (centres unmarked) [Example 2, trifluoroacetate]
pIC50: 7.02

COMPOUND: CCOc1cc(C(Nc2ccc(C(=N)N)cc2)C(=O)NNC(=O)c2ccncc2F)ccc1OCCN(C)C.O=C(O)C(F)(F)F (centres unmarked) [Example 53, trifluoroacetate]
pIC50: 6.79

(P) CCOc1cc(C(Nc2ccc(C(=N)N)cc2)C(=O)NNc2ccccc2OC)ccc1OCCN(C)C.O=C(O)C(F)(F)F (centres unmarked) [Example 56, trifluoroacetate]
(Q) CCOc1cc(C(Nc2ccc(C(=N)N)cc2)C(=O)NNC(=O)c2ccccc2Cl)ccc1OC(C)CN(C)C.O=C(O)C(F)(F)F (centres unmarked) [Example X-252, trifluoroacetate]
(R) CCOc1cc(C(Nc2ccc(C(=N)N)cc2)C(=O)NNc2ccccc2C(=O)O)ccc1OC(C)C.O=C(O)C(F)(F)F (centres unmarked) [Example 3, trifluoroacetate]
Request: Please put the entries in order of rising pIC50. Write the labels, ordered according to the request.
Result: P, Q, R
(P: 6.70, Q: 7.01, R: 7.29)

These measurements were taken from patent US20100240654A1.
